- MEASURED_TARGET: complement C3b, site-specifically biotinylated (human, UniProt P01024 23-667; P01024 749-1663, biotin, site-specific (site not given))
- ASSAY_EXPLANATION: SPR
MEASURE_NAME: Kd (nM)
The reply should contain only the number, in nM.

Some entries whose results are on file:
BINDER: SCIN-A.Q49A (natural protein) STSLPTSNEYQNEKLANELKSLLDELNVNELATGSLNTYYKRTIKISGAKAMYALKSKDFKKMSEAKYQLQKIYNEIDEALKSKY
Kd (nM): 69

BINDER: staphylococcal complement inhibitor SCIN-A, full-length wild type (natural protein) STSLPTSNEYQNEKLANELKSLLDELNVNELATGSLNTYYKRTIKISGQKAMYALKSKDFKKMSEAKYQLQKIYNEIDEALKSKY
Kd (nM): 96

Q: What measured Kd goes with SCIN-A.R42A (natural protein) STSLPTSNEYQNEKLANELKSLLDELNVNELATGSLNTYYKATIKISGQKAMYALKSKDFKKMSEAKYQLQKIYNEIDEALKSKY ?
Result: 6600

Source: paper PMC4565748
